Molecular target: CYP2C19 (Homo sapiens)
Sequence (P33261 whole entry): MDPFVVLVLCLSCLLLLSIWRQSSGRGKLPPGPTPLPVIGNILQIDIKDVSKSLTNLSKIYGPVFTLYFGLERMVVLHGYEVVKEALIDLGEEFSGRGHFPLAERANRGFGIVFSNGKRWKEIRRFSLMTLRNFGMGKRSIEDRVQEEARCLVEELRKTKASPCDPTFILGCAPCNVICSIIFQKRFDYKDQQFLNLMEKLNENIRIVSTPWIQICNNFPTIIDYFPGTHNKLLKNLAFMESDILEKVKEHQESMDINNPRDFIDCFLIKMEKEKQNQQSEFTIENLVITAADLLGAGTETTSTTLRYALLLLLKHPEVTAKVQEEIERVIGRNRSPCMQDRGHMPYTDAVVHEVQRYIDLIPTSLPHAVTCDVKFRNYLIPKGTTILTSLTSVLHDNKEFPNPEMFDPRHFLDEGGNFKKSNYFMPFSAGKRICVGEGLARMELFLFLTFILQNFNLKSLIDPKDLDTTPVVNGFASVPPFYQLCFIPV
Experiment: CYP inhibition in human liver microsomes
Format: biochemical
pIC50: −log10 of the molar value.
Readout Kind: pIC50

Q. I have this compound here, "O=c1cc(COc2cc(Cl)cc(Cl)c2)[nH][nH]1" , and I need its recorded pIC50.
A. < 4.30

* * *

Assay: In vitro microsomal stability, human
Type: in vitro ADME
Settings: human, microsomes, CL’int NADPH-free, 37 °C, absence of NADPH
Readout Kind: CLint scaled at 1 h, 5 µM (mL/min/kg)
Write it as a number; the unit mL/min/kg goes unstated.

Q. I have this compound here, "O=c1cc(COc2cc(Cl)cc(Cl)c2)[nH][nH]1" , and I need its recorded CLint scaled at 1 h, 5 µM.
A. 13

* * *

Assay: Aqueous solubility
Format: physicochemical
Settings: PBS with 1% DMSO
Readout Kind: solubility at 45 min
Report the figure along with its unit, number first.

Q. I have this compound here, "O=c1cc(COc2cc(Cl)cc(Cl)c2)[nH][nH]1" , and I need its recorded solubility at 45 min.
A. 250 µM

* * *

Assay: In vitro microsomal stability, human
Format: in vitro ADME
Settings: human, microsomes, CL’int, 37 °C, 1 h, with NADPH
Readout Kind: CLint scaled at 1 h, 5 µM (mL/min/kg)
Write it as a number; the unit mL/min/kg goes unstated.

Q. I have this molecule here, O=c1cc(COc2ccc(Cl)cc2)[nH][nH]1 [Compound 9] , and I need its recorded CLint scaled at 1 h, 5 µM.
A. 15.3
